- target: LKB1 (Homo sapiens, UniProt Q15831+Q7RTN6)
- Sequence (Q15831 whole entry): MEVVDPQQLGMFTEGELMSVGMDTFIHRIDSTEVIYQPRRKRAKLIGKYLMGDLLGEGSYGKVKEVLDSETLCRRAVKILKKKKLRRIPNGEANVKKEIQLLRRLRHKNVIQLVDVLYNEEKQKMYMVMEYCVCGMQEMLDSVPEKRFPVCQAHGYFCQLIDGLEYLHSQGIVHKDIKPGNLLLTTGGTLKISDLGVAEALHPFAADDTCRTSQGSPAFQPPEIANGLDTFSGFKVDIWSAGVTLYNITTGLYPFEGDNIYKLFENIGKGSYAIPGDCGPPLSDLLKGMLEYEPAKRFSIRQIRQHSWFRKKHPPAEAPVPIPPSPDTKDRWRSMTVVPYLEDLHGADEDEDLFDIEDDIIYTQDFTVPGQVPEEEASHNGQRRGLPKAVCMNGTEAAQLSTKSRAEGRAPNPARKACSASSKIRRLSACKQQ
- Sequence (Q7RTN6 whole entry): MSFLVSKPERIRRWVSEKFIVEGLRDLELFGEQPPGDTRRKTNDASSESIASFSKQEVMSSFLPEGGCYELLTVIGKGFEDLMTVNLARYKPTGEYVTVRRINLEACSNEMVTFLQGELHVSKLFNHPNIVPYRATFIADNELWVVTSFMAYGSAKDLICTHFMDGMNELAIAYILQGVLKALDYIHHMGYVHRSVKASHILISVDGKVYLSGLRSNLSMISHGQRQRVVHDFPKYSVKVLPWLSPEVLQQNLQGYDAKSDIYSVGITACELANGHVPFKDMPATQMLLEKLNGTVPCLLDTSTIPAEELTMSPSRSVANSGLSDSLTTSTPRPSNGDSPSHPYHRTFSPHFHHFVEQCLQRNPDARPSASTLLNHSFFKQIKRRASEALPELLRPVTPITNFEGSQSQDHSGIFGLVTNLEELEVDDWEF
- Sequence (Q9Y376 whole entry partner): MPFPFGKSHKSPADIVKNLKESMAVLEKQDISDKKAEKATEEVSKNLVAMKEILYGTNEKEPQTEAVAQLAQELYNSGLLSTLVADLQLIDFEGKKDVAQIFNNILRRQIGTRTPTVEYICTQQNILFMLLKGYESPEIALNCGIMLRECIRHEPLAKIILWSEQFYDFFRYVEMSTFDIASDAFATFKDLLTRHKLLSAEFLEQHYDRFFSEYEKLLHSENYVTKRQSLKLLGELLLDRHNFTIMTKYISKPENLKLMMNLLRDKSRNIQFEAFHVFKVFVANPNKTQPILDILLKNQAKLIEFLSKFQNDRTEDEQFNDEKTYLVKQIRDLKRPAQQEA
- experiment: in vitro LKB1 functional activity
- Assay type: biochemical
- settings: APA analogs
measure_name: LKB1 % Act. Increase

Below are worked cases with known answers.
compound: Cc1ccc(-c2cnc(N)c(C(=O)Nc3ccc(S(N)(=O)=O)c(F)c3)n2)cc1
target: LKB1 (Homo sapiens, UniProt Q15831+Q7RTN6)
value: C (C=199-1000%)
//
compound: CCOP(=O)(OCC)c1ccc(NC(=O)c2nc(-c3ccc(C)cc3)cnc2N)cc1
target: LKB1 (Homo sapiens, UniProt Q15831+Q7RTN6)
value: D (D=<1000%)
//
compound: CCO[P@](C)(=O)CS(=O)(=O)c1ccc(NC(=O)c2nc(-c3ccc(C)cc3)cnc2N)cc1
target: LKB1 (Homo sapiens, UniProt Q15831+Q7RTN6)
value: B (B=399-2000%)
//
compound: CC(=O)NS(=O)(=O)c1ccc(NC(=O)c2nc(-c3ccc(C)cc3)cnc2N)cc1F
target: LKB1 (Homo sapiens, UniProt Q15831+Q7RTN6)
value: D (D=<1000%)
//
compound: Cc1ccc(-c2cnc(N)c(C(=O)Nc3ccc(S(=O)(=O)CC(=O)O)cc3)n2)cc1
target: LKB1 (Homo sapiens, UniProt Q15831+Q7RTN6)
value: D (D=<1000%)

Request: Give the reported LKB1 % Act. Increase for `CCS(=O)(=O)c1cccc(-c2cnc(N)c(C(=O)Nc3ccc(S(=O)(=O)NC(C)=O)cc3)n2)c1` (system: LKB1 (Homo sapiens, UniProt Q15831+Q7RTN6)).
Result: C (C=199-1000%)

Request: Give the reported LKB1 % Act. Increase for `Cc1ccc(-c2cnc(N)c(C(=O)Nc3ccc([S@SP3](=O)(=O)CP(=O)(O)O)cc3)n2)cc1` (system: LKB1 (Homo sapiens, UniProt Q15831+Q7RTN6)).
Result: C (C=199-1000%)

Request: Give the reported LKB1 % Act. Increase for `Cc1ccc(-c2cnc(N)c(C(=O)Nc3ccc(C(=O)O)cc3)n2)cc1` (system: LKB1 (Homo sapiens, UniProt Q15831+Q7RTN6)).
Result: C (C=199-1000%)

###

- System: ACHN cell line
- experiment: drug screen of the SelleckChem kinase inhibitor library with and without 5 uM SU-329, Cell-Titer Glo after 5 days
- Format: cell-based
- settings: kinase inhibitor at 200 nM with and without 5 uM SU329; ACHN cell line; 5 days; Cell-Titer Glo
Returns one of y or n; y when log2fc is >= 0.1.

molecule: N#Cc1c(O)c2c(-c3ccc(-c4ccccc4O)cc3)csc2[nH]c1=O
class: y

Request: Please check the record `Nc1cc(C(F)(F)F)c(-c2cc(N3CCOCC3)nc(N3CCOCC3)n2)cn1` and state if its log2fc is at or above 0.1.
Result: n

Request: Please check the record C[C@@H]1CCN(C(=O)CC#N)C[C@@H]1N(C)c1ncnc2[nH]ccc12.O=C(O)CC(O)(CC(=O)O)C(=O)O [Tofacitinib (CP-690550) Citrate] and state if its log2fc is at or above 0.1.
Result: y

Request: Please check the record `O=C(NCCCNc1nc(Nc2cccc(NC(=O)N3CCCC3)c2)ncc1I)c1cccs1` and state if its log2fc is at or above 0.1.
Result: n

Request: Please check the record `Cc1ccccc1-n1c(Cn2ncc3c(N)ncnc32)nc2cccc(C)c2c1=O` and state if its log2fc is at or above 0.1.
Result: y

Request: Please check the record CN1CCC(COc2cnc(-c3cccc(Cn4nc(-c5cccc(C#N)c5)ccc4=O)c3)nc2)CC1 [Tepotinib (EMD 1214063)] and state if its log2fc is at or above 0.1.
Result: n

Request: Please check the record `Nc1ccc(-c2ccc3ncc4ccc(=O)n(-c5cccc(C(F)(F)F)c5)c4c3c2)cn1` and state if its log2fc is at or above 0.1.
Result: y

Request: Please check the record `C[C@@H](Oc1cc(-c2cnn(C3CCNCC3)c2)cnc1N)c1c(Cl)ccc(F)c1Cl` and state if its log2fc is at or above 0.1.
Result: y

Request: Please check the record `N#CC1(c2ccc(NC(=O)c3cccnc3NCc3ccncc3)cc2)CCCC1` and state if its log2fc is at or above 0.1.
Result: y

Request: Please check the record `Cn1cc(/C=C2\C(=O)Nc3cccnc32)c2ccccc21` and state if its log2fc is at or above 0.1.
Result: n

Request: Please check the record CC[C@H](CO)Nc1nc(NCc2ccccc2)c2ncn(C(C)C)c2n1 [Roscovitine (Seliciclib, CYC202)] and state if its log2fc is at or above 0.1.
Result: y

Request: Please check the record CN1CCN(C2CCN(C(=O)Nc3cc(Oc4ccc(NC(=O)C5(C(=O)Nc6ccc(F)cc6)CC5)c(F)c4)ccn3)CC2)CC1 [Golvatinib (E7050)] and state if its log2fc is at or above 0.1.
Result: n

###

- System: ACHN cell line
- experiment: drug screen of the SelleckChem kinase inhibitor library with and without 5 uM SU-329, Cell-Titer Glo after 5 days
- Assay type: cell-based
- settings: kinase inhibitor at 200 nM with and without 5 uM SU329; ACHN cell line; 5 days; Cell-Titer Glo
# log2fc annotations
Enter a number only.

Below are worked cases with known answers.
compound: C[C@@H](Oc1cc(-n2cnc3ccc(CN4CCN(C)CC4)cc32)sc1C(N)=O)c1ccccc1C(F)(F)F [GSK461364]
log2fc: 0.9925
--
compound: COc1cc(Nc2ncc(F)c(Nc3ccc4c(n3)NC(=O)C(C)(C)O4)n2)cc(OC)c1OC [R406 (free base)]
log2fc: 0.8334
--
compound: Cn1cc(C2=C(c3ccc(Cl)cc3Cl)C(=O)NC2=O)c2ccccc21 [SB216763]
log2fc: 0.4708

Request: Fill in the blank: the reported log2fc of COc1cc(Nc2ncc3c(n2)-c2ccc(Cl)cc2C(c2c(F)cccc2OC)=NC3)ccc1C(=O)O [Alisertib (MLN8237)] is ____.
Result: 0.7052

###

- Test system: ACHN cell line
- experiment: drug screen of the SelleckChem kinase inhibitor library with and without 5 uM SU-329, Cell-Titer Glo after 5 days
- Type: cell-based
- settings: kinase inhibitor at 200 nM with and without 5 uM SU329; ACHN cell line; 5 days; Cell-Titer Glo
measure_name: log2fc
Enter a number only.

Below are worked cases with known answers.
compound: c1cncc(CN2CCC(n3ncc4c(N5CCOCC5)nc(-c5ccc6[nH]ccc6c5)nc43)CC2)c1
log2fc: −1.322
//
compound: Fc1cc(-c2cccc3ncc(-c4cnn(C5CCNCC5)c4)nc23)cc(F)c1CN1CCOCC1 [NVP-BSK805 2HCl]
log2fc: −0.09499
//
compound: C=CC(=O)Nc1cccc(Nc2nc(Nc3ccc(NC4CN(CCF)C4)cc3OC)ncc2C(F)(F)F)c1
log2fc: 0.1218

Request: Fill in the blank: the reported log2fc of `FC(F)c1nc2ccccc2n1-c1nc(N2CCOCC2)nc(N2CCOCC2)n1` is ____.
Result: −0.8509

###

- Test system: ACHN cell line
- experiment: drug screen of the SelleckChem kinase inhibitor library with and without 5 uM SU-329, Cell-Titer Glo after 5 days
- Type: cell-based
- settings: kinase inhibitor at 200 nM with and without 5 uM SU329; ACHN cell line; 5 days; Cell-Titer Glo
Returns one of true or false; true when log2fc is >= 0.1.

Completed entries (count: 2):
compound: Nc1ncnc2c1c(-c1cnc3[nH]ccc3c1)nn2C1CCCC1
class: false
//
compound: CNC(=O)c1cc(Oc2ccc(NC(=O)Nc3ccc(Cl)c(C(F)(F)F)c3)cc2)ccn1 [Sorafenib, sorafenib, reference compound]
class: true

Request: Please check the record Cc1[nH]c(/C=C2\C(=O)Nc3ccccc32)c(C)c1CCC(=O)O [Orantinib (TSU-68, SU6668)] and state if its log2fc is at or above 0.1.
Result: false

Request: Please check the record `Clc1ccc(C2(c3ccc(-c4cn[nH]c4)cc3)CCNCC2)cc1` and state if its log2fc is at or above 0.1.
Result: false

Request: Please check the record `CN1CCN(c2cccc(Nc3nc4c(-c5ccc(S(C)(=O)=O)cc5)cccn4n3)c2)CC1` and state if its log2fc is at or above 0.1.
Result: false

Request: Please check the record C#Cc1cccc(Nc2ncnc3cc(OC)c(OCCCCCCC(=O)NO)cc23)c1 [CUDC-101, reference compound] and state if its log2fc is at or above 0.1.
Result: true

Request: Please check the record Nc1ncnc2c1c(-c1cccc(OCc3ccccc3)c1)cn2C1CC(CN2CCC2)C1 (stereo not drawn) and state if its log2fc is at or above 0.1.
Result: true

Request: Please check the record COc1cc(F)c(F)c(Nc2ccc(I)cc2F)c1NS(=O)(=O)C1(C[C@H](O)CO)CC1 [Refametinib (RDEA119, Bay 86-9766)] and state if its log2fc is at or above 0.1.
Result: true

Request: Please check the record `CS(=O)(=O)N1CCc2c(-c3cnc(N)nc3)nc(N3CCOCC3)nc21` and state if its log2fc is at or above 0.1.
Result: false

Request: Please check the record `CS(=O)(=O)c1cccc(CNc2nc(Nc3ccc4c(c3)CCC(=O)N4)ncc2C(F)(F)F)c1` and state if its log2fc is at or above 0.1.
Result: true

Request: Please check the record `Cc1csc(-c2nnc(Nc3ccc(Oc4ncccc4-c4ccnc(N)n4)cc3)c3ccccc23)c1` and state if its log2fc is at or above 0.1.
Result: true

Request: Please check the record `CN(C[C@@H]1COCCO1)S(=O)(=O)Nc1ccc2ccc3ncc(-c4cnn(C)c4)cc3c(=O)c2c1` and state if its log2fc is at or above 0.1.
Result: false

Request: Please check the record `S=C(NCc1ccc2c(c1)OCO2)N1CCN(c2ncnc3c2oc2ccccc23)CC1` and state if its log2fc is at or above 0.1.
Result: false

Request: Please check the record CO[C@H]1C[C@@H]2CC[C@@H](C)[C@@](O)(O2)C(=O)C(=O)N2CCCC[C@H]2C(=O)O[C@H]([C@H](C)C[C@@H]2CC[C@@H](O)[C@H](OC)C2)CC(=O)[C@H](C)/C=C(\C)[C@@H](O)[C@@H](OC)C(=O)[C@H](C)C[C@H](C)/C=C/C=C/C=C/1C [Rapamycin (Sirolimus)] and state if its log2fc is at or above 0.1.
Result: false

Request: Please check the record `Cc1cc2c(F)c(Oc3ncnn4cc(OC[C@@H](C)O)c(C)c34)ccc2[nH]1` and state if its log2fc is at or above 0.1.
Result: true
